Biological target: porcine beta-2 adrenoceptor (Sus scrofa, UniProt Q28997)
Sequence (Q28997 whole entry): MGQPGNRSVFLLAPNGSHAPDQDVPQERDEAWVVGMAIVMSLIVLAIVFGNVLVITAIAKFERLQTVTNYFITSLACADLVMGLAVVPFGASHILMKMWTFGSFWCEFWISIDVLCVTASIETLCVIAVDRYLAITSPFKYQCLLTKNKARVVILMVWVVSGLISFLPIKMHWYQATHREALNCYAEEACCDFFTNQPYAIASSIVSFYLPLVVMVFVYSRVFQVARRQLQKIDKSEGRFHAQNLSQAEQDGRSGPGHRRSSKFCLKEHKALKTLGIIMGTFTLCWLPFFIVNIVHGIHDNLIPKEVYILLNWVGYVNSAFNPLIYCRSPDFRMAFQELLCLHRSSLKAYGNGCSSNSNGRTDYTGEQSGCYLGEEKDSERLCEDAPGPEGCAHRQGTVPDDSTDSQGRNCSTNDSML
Experiment: cAMP assay in CHO cells transfected with the porcine beta-2 adrenoceptor (DiscoveRx Hit Hunter cAMP II)
Conditions: CHO cells transfected with porcine beta-2 adrenoceptor, 30 minutes incubation with compound
pEC50: −log10 of the molar value.
measured_property: pEC50

- compound: "CC(CCc1cnc(Cl)s1)N[C@@H]1CCn2c(=O)[nH]c3cccc(c32)[C@H]1O (mixture of isomers) [Example 25]"
  target_under_test: "porcine beta-2 adrenoceptor (Sus scrofa, UniProt Q28997)"
  test_value: 8.38
- compound: "CC(CCn1cnc2cc(F)cc(F)c21)N[C@@H]1CCn2c(=O)[nH]c3cccc(c32)[C@H]1O (single isomer, unassigned) [Example 69]"
  target_under_test: "porcine beta-2 adrenoceptor (Sus scrofa, UniProt Q28997)"
  test_value: 9.40
- compound: "CC(/C=C/c1ccc2[nH]cnc2c1)N[C@@H]1CCn2c(=O)[nH]c3cccc(c32)[C@H]1O (mixture of isomers) [Example 42]"
  target_under_test: "porcine beta-2 adrenoceptor (Sus scrofa, UniProt Q28997)"
  test_value: 7.66
- compound: "CC(CCc1ccc2[nH]ccc2c1)N[C@@H]1CCn2c(=O)[nH]c3cccc(c32)[C@H]1O (single isomer, unassigned) [Example 37]"
  target_under_test: "porcine beta-2 adrenoceptor (Sus scrofa, UniProt Q28997)"
  test_value: 7.55
- compound: "CC(CCc1cc(F)cc2cc[nH]c12)N[C@@H]1CCn2c(=O)[nH]c3cccc(c32)[C@H]1O (mixture of isomers) [Example 1b]"
  target_under_test: "porcine beta-2 adrenoceptor (Sus scrofa, UniProt Q28997)"
  test_value: 9.00
- compound: "CC(CCc1n[nH]c2ccccc12)N[C@@H]1CCn2c(=O)[nH]c3cccc(c32)[C@H]1O (single isomer, unassigned) [Example 58]"
  target_under_test: "porcine beta-2 adrenoceptor (Sus scrofa, UniProt Q28997)"
  test_value: 7.48

---

log10 EC50 overview
Target: UniProtKB Q28044
Sequence (Q28044 whole entry): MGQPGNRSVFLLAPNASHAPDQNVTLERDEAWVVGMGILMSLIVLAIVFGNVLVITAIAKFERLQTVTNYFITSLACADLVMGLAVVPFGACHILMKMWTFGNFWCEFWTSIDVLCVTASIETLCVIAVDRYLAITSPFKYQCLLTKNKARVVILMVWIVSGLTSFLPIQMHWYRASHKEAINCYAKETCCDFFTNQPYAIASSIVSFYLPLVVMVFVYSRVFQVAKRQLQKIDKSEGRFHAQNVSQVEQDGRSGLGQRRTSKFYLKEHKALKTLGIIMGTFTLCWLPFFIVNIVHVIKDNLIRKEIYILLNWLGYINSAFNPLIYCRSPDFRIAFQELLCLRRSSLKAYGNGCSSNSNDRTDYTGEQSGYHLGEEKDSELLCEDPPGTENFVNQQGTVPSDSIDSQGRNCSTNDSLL
Test: cAMP assay in CHO cells transfected with the bovine beta-2 adrenoceptor (DiscoveRx Hit Hunter cAMP II)
Details: CHO cells transfected with bovine beta-2 adrenoceptor, 30 minutes incubation with compound
measured_property: log10 EC50 (log10 of the value in µM)

- compound: "CC(CCc1c[nH]c2cnccc12)N[C@@H]1CCn2c(=O)[nH]c3cccc(c32)[C@H]1O (single isomer, unassigned) [Example 32b]"
  target_under_test: "UniProtKB Q28044"
  test_value: -1.02
- compound: "O=c1[nH]c2cccc3c2n1CC[C@@H](NCCc1c[nH]c2ccccc12)[C@@H]3O (racemic) [Example 40a]"
  target_under_test: "UniProtKB Q28044"
  test_value: -0.34
- compound: "Cc1cc(CCC(C)N[C@@H]2CCn3c(=O)[nH]c4cccc(c43)[C@H]2O)ccn1 (single isomer, unassigned) [Example 63]"
  target_under_test: "UniProtKB Q28044"
  test_value: -1.09
- compound: "CC(CCn1cncn1)N[C@@H]1CCn2c(=O)[nH]c3cccc(c32)[C@H]1O (single isomer, unassigned) [Example 61]"
  target_under_test: "UniProtKB Q28044"
  test_value: -1.55
- compound: "CC(CCc1cccc2cc[nH]c12)N[C@@H]1CCn2c(=O)[nH]c3cccc(c32)[C@H]1O (mixture of isomers) [Example 38d]"
  target_under_test: "UniProtKB Q28044"
  test_value: -3.22
- compound: "CC(CCc1c[nH]c2ccc(Cl)cc12)N[C@@H]1CCn2c(=O)[nH]c3cccc(c32)[C@H]1O (single isomer, unassigned) [Example 21b]"
  target_under_test: "UniProtKB Q28044"
  test_value: -1.82
- compound: "CC(CCc1cc(Br)no1)N[C@@H]1CCn2c(=O)[nH]c3cccc(c32)[C@H]1O (single isomer, unassigned) [Example 52]"
  target_under_test: "UniProtKB Q28044"
  test_value: -2.92
- compound: "C[C@@H](CCc1c[nH]c2ccccc12)N[C@@H]1CCn2c(=O)[nH]c3cccc(c32)[C@H]1O (racemic) [Example 4c]"
  target_under_test: "UniProtKB Q28044"
  test_value: -0.99
- compound: "CC(CCc1ccc[nH]c1=O)NC1CCn2c(=O)[nH]c3cccc(c32)C1O (centres unmarked) [Example 36]"
  target_under_test: "UniProtKB Q28044"
  test_value: -1.23
- compound: "CC(CCc1cccc2cc[nH]c12)N[C@@H]1CCn2c(=O)[nH]c3cccc(c32)[C@H]1O (single isomer, unassigned) [Example 38c]"
  target_under_test: "UniProtKB Q28044"
  test_value: -0.86
- compound: "CC(CCc1cc(Cl)cc2cc[nH]c12)N[C@@H]1CCn2c(=O)[nH]c3cccc(c32)[C@H]1O (mixture of isomers) [Example 35]"
  target_under_test: "UniProtKB Q28044"
  test_value: -3.10
- compound: "CC(CCc1c[nH]c2ccncc12)N[C@@H]1CCn2c(=O)[nH]c3cccc(c32)[C@H]1O (mixture of isomers) [Example 31c]"
  target_under_test: "UniProtKB Q28044"
  test_value: -0.44
- compound: "Cc1ccc2[nH]cc(CCC(C)N[C@@H]3CCn4c(=O)[nH]c5cccc(c54)[C@H]3O)c2c1 (mixture of isomers) [Example 33]"
  target_under_test: "UniProtKB Q28044"
  test_value: -1.13
- compound: "CC(CCc1nccs1)NC1CCn2c(=O)[nH]c3cccc(c32)C1O (centres unmarked) [Example 24a]"
  target_under_test: "UniProtKB Q28044"
  test_value: -0.39

Data origin, for the record: patent US20080267942A1
